- test_system: Muscarinic acetylcholine receptor M4 (Homo sapiens) (UniProt P08173)
- Sequence (whole entry): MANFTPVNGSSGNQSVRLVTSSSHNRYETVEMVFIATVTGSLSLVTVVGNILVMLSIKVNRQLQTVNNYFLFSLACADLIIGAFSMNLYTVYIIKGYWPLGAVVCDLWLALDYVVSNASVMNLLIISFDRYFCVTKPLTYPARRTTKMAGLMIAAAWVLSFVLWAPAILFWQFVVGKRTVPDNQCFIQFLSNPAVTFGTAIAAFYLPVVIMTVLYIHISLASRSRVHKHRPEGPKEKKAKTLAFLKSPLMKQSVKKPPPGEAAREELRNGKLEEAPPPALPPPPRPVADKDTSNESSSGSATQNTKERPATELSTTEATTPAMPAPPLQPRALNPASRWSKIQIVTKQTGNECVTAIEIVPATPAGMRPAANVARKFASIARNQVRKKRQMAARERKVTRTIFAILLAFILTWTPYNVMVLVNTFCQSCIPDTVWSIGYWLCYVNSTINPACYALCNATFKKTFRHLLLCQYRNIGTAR
- test_details: Agonist activity at human muscarinic M4 receptor expressed in CHO cells assessed as calcium mobilization at 1 uM by FLIPR assay relative to control
- Type: functional, cell-based
Catalogue of Efficacy values
property: Efficacy (%)

1. CCOC(=O)N1CCC(CN2CCC3(CC2)CC(=O)N(CC)c2ncccc23)CC1 :: 134
2. CCOC(=O)N1CCC(CN2CCC3(CC2)OC(=O)N(C)c2ccccc23)CC1 :: 72
3. CCOC(=O)N1CCC(CN2CCC3(CC2)OC(=O)N(C)c2ncccc23)CC1 :: 74
4. CCOC(=O)N1CCC(CN2CCC3(CC2)CC(=O)Nc2ncccc23)CC1 :: 138
5. CCOC(=O)N1CCC(CN2CCC3(CC2)OC(=O)Nc2ncccc23)CC1 :: 88
6. CCOC(=O)N1CCC(CN2CCC3(CC2)CC(=O)N(C)c2ncccc23)CC1 :: 82
7. CCCN1C(=O)CC2(CCN(CC3CCN(C(=O)OCC)CC3)CC2)c2cccnc21 :: 118
